Would you kindly list melting point for each of these compounds?
One number for each entry, in °C.

COMPOUND STRING: Brc1cccc2ccccc12
DISPLAY UNIT: °C
melting point: -1.8
//
COMPOUND STRING: O=C(O)c1cc(=O)c2cccc(O)c2[nH]1
DISPLAY UNIT: °C
melting point: 289
//
COMPOUND STRING: Cc1ccc(F)cc1[N+](=O)[O-]
DISPLAY UNIT: °C
melting point: 27

Look at each compound and report its melting point.
1. CC(C)Br
2. CC1(C)O[C@@H]2C[C@H]3[C@@H]4C[C@H](F)C5=CC(=O)C=C[C@]5(C)[C@@]4(F)[C@@H](O)C[C@]3(C)[C@]2(C(=O)CO)O1
3. Clc1cc2c(c(Cl)c1Cl)Oc1c(Cl)c(Cl)c(Cl)c(Cl)c1O2

1: -89; 2: 266; 3: 264

---

Would you kindly list melting point for each of these compounds?
Give bare numbers, in °C.

Solved cases below.
COMPOUND: CSC(C)C
READOUT VALUE: -102
//
COMPOUND: CCOC(O)C(Cl)(Cl)Cl (centres undefined)
READOUT VALUE: 56.5
//
COMPOUND: NC(c1ccccc1)c1ccccc1
READOUT VALUE: 34
//
COMPOUND: CC(C)=NN=C(C)C
READOUT VALUE: -12.5
//
COMPOUND: CN(C(=O)Cl)c1ccccc1
READOUT VALUE: 88.5

Look at each compound and report its melting point.
1. ONc1ccccc1
2. CC(C)(C)CC1(C)CO1 (centres undefined)
3. CCC(CO)[N+](=O)[O-] (centres undefined)
4. CC1(C)N=C(N)N=C(N)N1c1ccc(Cl)cc1
5. CCOc1ccc(C=O)cc1OCC
6. O=[N+]([O-])c1ccco1

1. 83.5
2. -64
3. -47
4. 146
5. 22
6. 30

Look at each compound and report its melting point.
1. CC[C@@H](CO)NC(=O)[C@@H]1C=C2c3cccc4c3c(cn4C)C[C@H]2N(C)C1
2. C[Si](C)(C)O[Si](C)(C)C
3. CCCC=C(C)C
4. COc1ccccc1N1CCN(CCCNc2cc(=O)n(C)c(=O)n2C)CC1
5. C=CC/C=C/C
6. NCCCCCN

[195, -66, -130, 157, -139, 9]

Look at each compound and report its melting point.
1. O=C=Nc1ccc(Cl)cc1
2. Clc1ccc(C(Cl)(Cl)Cl)cc1Cl
3. CCCCCCCCCCC1CCCCC1
4. O=C(O)COc1ccccc1
5. COc1ccc(C(=O)O)cc1OC
6. CCCCC(=O)c1ccc(N)cc1

1. 30
2. 25.8
3. -1.7
4. 98.5
5. 181
6. 74.5

---

Lab note - cut at 0.3 for log10 vapour pressure (mmHg): y if strictly below, n if not.

Solved entries:
MOLECULE: CCCC[C@@H](O)CC
CLASSIFICATION: y
--
MOLECULE: CC(C)(C)c1ccccc1
CLASSIFICATION: n
--
MOLECULE: CNC(=O)Oc1ccccc1OC(C)C
CLASSIFICATION: y

Is log10 vapour pressure (mmHg) of O=C(Cl)OCc1ccccc1 strictly below 0.3?
y

CCC(C)Br (centres undefined) ?
n

Cn1ccc(=O)[nH]c1=O ?
y

COP(=O)(OC)O/C(C)=C/C(=O)N(C)C ?
y

CCC(C)OC(C)CC (centres undefined) ?
n

C=C1C=CC(C(C)C)CC1 (centres undefined) ?
y

---

ATTRIBUTE MEASURED: boiling point
Mention the unit after the number when you answer.

COMPOUND: CCCCCCCCCCCCCCCCN
boiling point: 322 °C
//
COMPOUND: CB(C)N(C)C
boiling point: 65 °C
//
COMPOUND: CC=CCc1ccccc1
boiling point: 176 °C
//
COMPOUND: CC1(C)OCCO1
boiling point: 92.5 °C
//
COMPOUND: c1ccc2c(c1)ccc1ccccc12
boiling point: 340 °C
//
COMPOUND: C[C@H](N)[C@H](O)c1cccc(O)c1
boiling point: 218 °C
//
COMPOUND: OCC(F)(F)C(F)C(F)(F)F (stereo unspecified)
boiling point: 117 °C
//
COMPOUND: CCOC(=O)C(Cl)Cc1cc(-n2nc(C)n(C(F)F)c2=O)c(F)cc1Cl (stereo unspecified)
boiling point: 352 °C
//
COMPOUND: OC1CCCCC1
boiling point: 161 °C
//
COMPOUND: CN(C)c1cccc([N+](=O)[O-])c1
boiling point: 282 °C

Look at each compound and report its boiling point.
1. CCCCOC(=O)C1=CC(=O)CC(C)(C)O1
2. c1cncc(-c2cccnc2)c1
3. CCCC(CC)CC
4. Clc1ccc(Cl)c(Cl)c1Cl
5. c1ccc2ocnc2c1
6. CCC(C)CCc1ccccc1 (stereo unspecified)
7. CCC(C)c1ccccc1O (stereo unspecified)
8. CCC(C)c1cccc(C(C)CC)c1O (stereo unspecified)

1: 263 °C; 2: 292 °C; 3: 119 °C; 4: 254 °C; 5: 182 °C; 6: 220 °C; 7: 228 °C; 8: 258 °C

Look at each compound and report its boiling point.
1. O=NN1CCCCC1
2. CCCCc1cccc2ccccc12
3. CC(Br)Br
4. CCCOP(OCCC)OCCC
5. Cc1ccnc(Cl)c1
6. O=C1CCC(=O)O1

["219 °C", "289 °C", "108 °C", "206 °C", "192 °C", "261 °C"]

Look at each compound and report its boiling point.
1. C1=CC=CC=CC=C1
2. C1=CCCC=CCC1
3. COC(=O)c1ccccc1O
4. C/C=C(C)/C=C/C=C(C)C

140 °C
151 °C
223 °C
188 °C

Look at each compound and report its boiling point.
1. CCC(=O)OCCC(C)C
2. CCCCC(Cl)CC (stereo unspecified)
3. COc1ccc(C(=O)Cl)cc1
4. CCOC(=O)CCCCC(=O)OCC
5. ClC1CCCC1

["160 °C", "144 °C", "262 °C", "245 °C", "114 °C"]

---

Would you kindly list boiling point for each of these compounds?

Solved cases below.
COMPOUND: CC1CN(C)CCN1C (centres undefined)
boiling point: 150 °C
//
COMPOUND: Clc1cccc(Cl)c1
boiling point: 173 °C
//
COMPOUND: C=Cc1ccccc1Cl
boiling point: 189 °C
//
COMPOUND: C=CCSC#N
boiling point: 161 °C
//
COMPOUND: CN(C)c1cccc(O)c1
boiling point: 266 °C
//
COMPOUND: Cc1ccc(CCO)cc1
boiling point: 244 °C
//
COMPOUND: COC
boiling point: -24.8 °C
//
COMPOUND: CC(C)CCN(CCC(C)C)CCC(C)C
boiling point: 235 °C
//
COMPOUND: CC(C)NC(C)(C)C
boiling point: 98 °C
//
COMPOUND: CC(C)OC(=O)C=CC(=O)OC(C)C
boiling point: 280 °C

Look at each compound and report its boiling point.
1. OCCCl
2. Cc1cc(Cl)cc(Cl)c1Cl
3. CCCCCCCCCCCCOC(C)=O
4. COC(OC)(OC)OC
5. FC(F)(F)CCBr
6. CCCC(C=O)CCC
7. NCCCCCN

["129 °C", "230 °C", "265 °C", "114 °C", "63.5 °C", "160 °C", "179 °C"]

Look at each compound and report its boiling point.
1. CC(=O)CC(C)(C)O
2. FC(F)(F)C#CC(F)(F)F

168 °C
-24.6 °C

---

Would you kindly list boiling point for each of these compounds?
One number for each entry, in °C.

Solved cases below.
COMPOUND: Cc1cc(C)n(C)n1
boiling point / °C: 170

COMPOUND: CC(=O)CCCCO
boiling point / °C: 227

COMPOUND: CCNC1CCCCC1
boiling point / °C: 164

COMPOUND: S=C=Nc1ccc(Cl)cc1
boiling point / °C: 250

Look at each compound and report its boiling point.
1. CCCC=C(CCCC)CCCC
2. CN1CCOCC1
3. C[C@@H](Br)C(=O)Cl
4. ClC=CCl

[216, 116, 132, 55]

---

ATTRIBUTE MEASURED: log10 vapour pressure (mmHg)
Give bare numbers.

COMPOUND: Cc1ccc(C)cc1
log10 vapour pressure (mmHg): 0.947

COMPOUND: CCCCCOCCCCC
log10 vapour pressure (mmHg): -0.067

COMPOUND: Cc1cccc(C(=O)O)c1
log10 vapour pressure (mmHg): -3.63

COMPOUND: CC1COC(Cn2cncn2)(c2ccc(Oc3ccc(Cl)cc3)cc2Cl)O1 (configuration not stated)
log10 vapour pressure (mmHg): -9.6

COMPOUND: COP(=S)(OC)Oc1nc(Cl)c(Cl)cc1Cl
log10 vapour pressure (mmHg): -4.38

Look at each compound and report its log10 vapour pressure (mmHg).
1. CC(C)OC(=O)c1cc(-c2nn(C)c(C(F)(F)F)c2Br)c(F)cc1Cl
2. CC(C)N(C(=O)CCl)c1ccccc1

1: -7.15; 2: -3.64

meta.source: the OPERA property sets (Mansouri et al. 2018)
